# Tested on: Klebsiella pneumoniae
# method_summary: Antibacterial activity against Klebsiella pneumoniae 15-5 assessed as inhibition of bacterial growth measured after 18 to 20 hrs by broth microdilution method
# Type: functional
# study_conditions: time 18-20 hrs
property_label: MIC (mg/L)

# count of solved cases: 2
Cc1nc(-c2ccc(C3SCCS3)cc2)ncc1C(=O)N[C@@H](CCN)C(=O)N(C)[C@@H]1C(=O)N[C@@H](C)C(=O)N[C@H](C(=O)NCC#N)Cc2ccc(OCCN)c(c2)-c2cc1ccc2OCCN.O=C(O)C(F)(F)F.O=C(O)C(F)(F)F.O=C(O)C(F)(F)F.O=C(O)C(F)(F)F | 0.25
Cc1nc(-c2ccc(C(C)(C)C)cc2)ncc1C(=O)N[C@@H](CCN)C(=O)N(C)[C@@H]1C(=O)N[C@@H](C)C(=O)N[C@H](C(=O)CC#N)Cc2ccc(OCCN)c(c2)-c2cc1ccc2OCCN.O=C(O)C(F)(F)F.O=C(O)C(F)(F)F.O=C(O)C(F)(F)F.O=C(O)C(F)(F)F | 16

1 = CSC(=O)CNC(=O)[C@@H]1Cc2ccc(OCCN)c(c2)-c2cc(ccc2OCCN)[C@H](N(C)C(=O)[C@H](CCN)NC(=O)c2cnc(-c3ccc(C(C)(C)C)cc3)nc2C)C(=O)N[C@@H](C)C(=O)N1.O=C(O)C(F)(F)F.O=C(O)C(F)(F)F.O=C(O)C(F)(F)F.O=C(O)C(F)(F)F
2 = Cc1nc(-c2ccc(CSSCC(C)C)cc2)ncc1C(=O)N[C@@H](CCN)C(=O)N(C)[C@@H]1C(=O)N[C@@H](C)C(=O)N[C@H](C(=O)NCC#N)Cc2ccc(OCCN)c(c2)-c2cc1ccc2OCCN.O=C(O)C(F)(F)F.O=C(O)C(F)(F)F.O=C(O)C(F)(F)F.O=C(O)C(F)(F)F
3 = Cc1nc(-c2ccc(C(C)(C)C)cc2)ncc1C(=O)N[C@@H](CCN)C(=O)N(C)[C@@H]1C(=O)N[C@@H](C)C(=O)N[C@H](C(=O)OCC#N)Cc2ccc(OCCN)c(c2)-c2cc1ccc2OCCN.O=C(O)C(F)(F)F.O=C(O)C(F)(F)F.O=C(O)C(F)(F)F.O=C(O)C(F)(F)F
4 = COCCSSCc1ccc(-c2ncc(C(=O)N[C@@H](CCN)C(=O)N(C)[C@@H]3C(=O)N[C@@H](C)C(=O)N[C@H](C(=O)NCC#N)Cc4ccc(OCCN)c(c4)-c4cc3ccc4OCCN)c(C)n2)cc1.O=C(O)C(F)(F)F.O=C(O)C(F)(F)F.O=C(O)C(F)(F)F.O=C(O)C(F)(F)F
rank_up(items): orders items by reported MIC in ascending numerical order. Write out the labels following the order that was asked for. 2, 3, 1, 4
(2: 0.06 mg/L, 3: 0.25 mg/L, 1: 0.5 mg/L, 4: 1 mg/L)

A = CCSSc1ccc(-c2ncc(C(=O)N[C@@H](CCN)C(=O)N(C)[C@@H]3C(=O)N[C@@H](C)C(=O)N[C@H](C(=O)NCC#N)Cc4ccc(OCCN)c(c4)-c4cc3ccc4OCCN)c(C)n2)cc1.O=C(O)C(F)(F)F.O=C(O)C(F)(F)F.O=C(O)C(F)(F)F.O=C(O)C(F)(F)F
B = Cc1nc(C2=CCC3(CC2)CC3)ncc1C(=O)N[C@@H](CCN)C(=O)N(C)[C@@H]1C(=O)N[C@@H](C)C(=O)N[C@H](C(=O)NCC#N)Cc2ccc(OCCN)c(c2)-c2cc1ccc2OCCN.O=C(O)C(F)(F)F.O=C(O)C(F)(F)F.O=C(O)C(F)(F)F.O=C(O)C(F)(F)F
Select one: A or B . Criterion: greater recorded MIC. Mark your selection by writing its label. B

I = Cc1nc(C2CCC3(CC2)CC3)ncc1C(=O)N[C@@H](CCN)C(=O)N(C)[C@@H]1C(=O)N[C@@H](C)C(=O)N[C@H](C(=O)NCC#N)Cc2ccc(OCCN)c(c2)-c2cc1ccc2OCCN.O=C(O)C(F)(F)F.O=C(O)C(F)(F)F.O=C(O)C(F)(F)F.O=C(O)C(F)(F)F
II = CSSc1ccc(-c2ncc(C(=O)N[C@@H](CCN)C(=O)N(C)[C@@H]3C(=O)N[C@@H](C)C(=O)N[C@H](C(=O)NCC#N)Cc4ccc(OCCN)c(c4)-c4cc3ccc4OCCN)c(C)n2)cc1.O=C(O)C(F)(F)F.O=C(O)C(F)(F)F.O=C(O)C(F)(F)F.O=C(O)C(F)(F)F
Select one: I or II . Criterion: greater recorded MIC. Mark your selection by writing its label. I
(I: 2 mg/L, II: 1 mg/L)

====

# Tested on: Klebsiella pneumoniae
# method_summary: Antibacterial activity against Klebsiella pneumoniae 15-5 assessed as inhibition of bacterial growth measured after 18 to 20 hrs by broth microdilution method
# Format: functional
# study_conditions: time 18-20 hrs
property_label: MIC (µg/mL)

# count of solved cases: 2
Cc1nc(-c2ccc(C(C)(C)C)cc2)ncc1C(=O)N[C@@H](CCN)C(=O)N(C)[C@@H]1C(=O)N[C@@H](C)C(=O)N[C@H](C(=O)O)Cc2ccc(OCCN)c(c2)-c2cc1ccc2OCCN.O=C(O)C(F)(F)F.O=C(O)C(F)(F)F.O=C(O)C(F)(F)F.O=C(O)C(F)(F)F | 0.125
Cc1nc(-c2ccc(C(C)(C)C)cc2)ncc1C(=O)N[C@@H](CCN)C(=O)N(C)[C@@H]1C(=O)N[C@@H](C)C(=O)N[C@H](C(=O)NNCC#N)Cc2ccc(OCCN)c(c2)-c2cc1ccc2OCCN.Cl.Cl.Cl.Cl | 1

A = Cc1nc(-c2ccc(CSSC3CCCC3)cc2)ncc1C(=O)N[C@@H](CCN)C(=O)N(C)[C@@H]1C(=O)N[C@@H](C)C(=O)N[C@H](C(=O)NCC#N)Cc2ccc(OCCN)c(c2)-c2cc1ccc2OCCN.O=C(O)C(F)(F)F.O=C(O)C(F)(F)F.O=C(O)C(F)(F)F.O=C(O)C(F)(F)F
B = Cc1nc(-c2ccc(CSSC3CCC3)cc2)ncc1C(=O)N[C@@H](CCN)C(=O)N(C)[C@@H]1C(=O)N[C@@H](C)C(=O)N[C@H](C(=O)NCC#N)Cc2ccc(OCCN)c(c2)-c2cc1ccc2OCCN.O=C(O)C(F)(F)F.O=C(O)C(F)(F)F.O=C(O)C(F)(F)F.O=C(O)C(F)(F)F
Select one: A or B . Criterion: greater recorded MIC. Mark your selection by writing its label. B

====

# System: Klebsiella pneumoniae
# method_summary: Antibacterial activity against Klebsiella pneumoniae 15-5 assessed as inhibition of bacterial growth measured after 18 to 20 hrs by broth microdilution method
# Format: functional
# study_conditions: time 18-20 hrs
property_label: MIC (µg/mL)

# count of solved cases: 3
CSSC1(c2ccc(-c3ncc(C(=O)N[C@@H](CCN)C(=O)N(C)[C@@H]4C(=O)N[C@@H](C)C(=O)N[C@H](C(=O)NCC#N)Cc5ccc(OCCN)c(c5)-c5cc4ccc5OCCN)c(C)n3)cc2)CCC1.O=C(O)C(F)(F)F.O=C(O)C(F)(F)F.O=C(O)C(F)(F)F.O=C(O)C(F)(F)F | 0.125
CCCCCSSCc1ccc(-c2ncc(C(=O)N[C@@H](CCN)C(=O)N(C)[C@@H]3C(=O)N[C@@H](C)C(=O)N[C@H](C(=O)NCC#N)Cc4ccc(OCCN)c(c4)-c4cc3ccc4OCCN)c(C)n2)cc1.O=C(O)C(F)(F)F.O=C(O)C(F)(F)F.O=C(O)C(F)(F)F.O=C(O)C(F)(F)F | 0.25
Cc1nc(-c2ccc(C(C)(C)C)cc2)ncc1C(=O)N[C@@H](CCN)C(=O)N(C)[C@@H]1C(=O)N[C@@H](C)C(=O)N[C@H](NC(=O)CC#N)Cc2ccc(OCCN)c(c2)-c2cc1ccc2OCCN.O=C(O)C(F)(F)F.O=C(O)C(F)(F)F.O=C(O)C(F)(F)F.O=C(O)C(F)(F)F | 64

A = Cc1nc(-c2ccc(C(C)(C)C)cc2)ncc1C(=O)N[C@@H](CCN)C(=O)N(C)[C@@H]1C(=O)N[C@@H](C)C(=O)N[C@H](C(=O)NN(C)CC#N)Cc2ccc(OCCN)c(c2)-c2cc1ccc2OCCN.Cl.Cl.Cl.Cl
B = C[C@@H]1NC(=O)[C@@H](N(C)C(=O)[C@H](CCN)NC(=O)c2cnc(-c3ccc(CSSC(C)(C)C)cc3)cc2Cl)c2ccc(OCCN)c(c2)-c2cc(ccc2OCCN)C[C@@H](C(=O)NCC#N)NC1=O.O=C(O)C(F)(F)F.O=C(O)C(F)(F)F.O=C(O)C(F)(F)F.O=C(O)C(F)(F)F
Lab log: flag the item ( A or B ) with the smaller MIC figure. Mark your selection by writing its label. B

====

# Test system: Pseudomonas aeruginosa
# method_summary: Antibacterial activity against Pseudomonas aeruginosa 19-5 assessed as inhibition of bacterial growth measured after 18 to 20 hrs by broth microdilution method
# Type: functional
# study_conditions: time 18-20 hrs
property_label: MIC (µg/mL)

a = CCCCSSCc1ccc(-c2ncc(C(=O)N[C@@H](CCN)C(=O)N(C)[C@@H]3C(=O)N[C@@H](C)C(=O)N[C@H](C(=O)NCC#N)Cc4ccc(OCCN)c(c4)-c4cc3ccc4OCCN)c(C)n2)cc1.O=C(O)C(F)(F)F.O=C(O)C(F)(F)F.O=C(O)C(F)(F)F.O=C(O)C(F)(F)F
b = Cc1nc(-c2ccc(SSC(C)(C)C)cc2)ncc1C(=O)N[C@@H](CCN)C(=O)N(C)[C@@H]1C(=O)N[C@@H](C)C(=O)N[C@H](C(=O)O)Cc2ccc(OCCN)c(c2)-c2cc1ccc2OCCN.O=C(O)C(F)(F)F.O=C(O)C(F)(F)F.O=C(O)C(F)(F)F.O=C(O)C(F)(F)F
c = CCCCCSSCc1ccc(-c2ncc(C(=O)N[C@@H](CCN)C(=O)N(C)[C@@H]3C(=O)N[C@@H](C)C(=O)N[C@H](C(=O)NCC#N)Cc4ccc(OCCN)c(c4)-c4cc3ccc4OCCN)c(C)n2)cc1.O=C(O)C(F)(F)F.O=C(O)C(F)(F)F.O=C(O)C(F)(F)F.O=C(O)C(F)(F)F
d = CCCSSc1ccc(-c2ncc(C(=O)N[C@@H](CCN)C(=O)N(C)[C@@H]3C(=O)N[C@@H](C)C(=O)N[C@H](C(=O)NCC#N)Cc4ccc(OCCN)c(c4)-c4cc3ccc4OCCN)c(C)n2)cc1.O=C(O)C(F)(F)F.O=C(O)C(F)(F)F.O=C(O)C(F)(F)F.O=C(O)C(F)(F)F
Rank items: key MIC, increasing. Write out the labels following the order that was asked for. c, d, a, b
(c: 2 µg/mL, d: 4 µg/mL, a: 8 µg/mL, b: 16 µg/mL)
